- target.system: Phosphatidylinositol 4,5-bisphosphate 3-kinase catalytic subunit beta isoform (Homo sapiens, UniProt P42338)
- Sequence (P42338 whole entry, canonical isoform): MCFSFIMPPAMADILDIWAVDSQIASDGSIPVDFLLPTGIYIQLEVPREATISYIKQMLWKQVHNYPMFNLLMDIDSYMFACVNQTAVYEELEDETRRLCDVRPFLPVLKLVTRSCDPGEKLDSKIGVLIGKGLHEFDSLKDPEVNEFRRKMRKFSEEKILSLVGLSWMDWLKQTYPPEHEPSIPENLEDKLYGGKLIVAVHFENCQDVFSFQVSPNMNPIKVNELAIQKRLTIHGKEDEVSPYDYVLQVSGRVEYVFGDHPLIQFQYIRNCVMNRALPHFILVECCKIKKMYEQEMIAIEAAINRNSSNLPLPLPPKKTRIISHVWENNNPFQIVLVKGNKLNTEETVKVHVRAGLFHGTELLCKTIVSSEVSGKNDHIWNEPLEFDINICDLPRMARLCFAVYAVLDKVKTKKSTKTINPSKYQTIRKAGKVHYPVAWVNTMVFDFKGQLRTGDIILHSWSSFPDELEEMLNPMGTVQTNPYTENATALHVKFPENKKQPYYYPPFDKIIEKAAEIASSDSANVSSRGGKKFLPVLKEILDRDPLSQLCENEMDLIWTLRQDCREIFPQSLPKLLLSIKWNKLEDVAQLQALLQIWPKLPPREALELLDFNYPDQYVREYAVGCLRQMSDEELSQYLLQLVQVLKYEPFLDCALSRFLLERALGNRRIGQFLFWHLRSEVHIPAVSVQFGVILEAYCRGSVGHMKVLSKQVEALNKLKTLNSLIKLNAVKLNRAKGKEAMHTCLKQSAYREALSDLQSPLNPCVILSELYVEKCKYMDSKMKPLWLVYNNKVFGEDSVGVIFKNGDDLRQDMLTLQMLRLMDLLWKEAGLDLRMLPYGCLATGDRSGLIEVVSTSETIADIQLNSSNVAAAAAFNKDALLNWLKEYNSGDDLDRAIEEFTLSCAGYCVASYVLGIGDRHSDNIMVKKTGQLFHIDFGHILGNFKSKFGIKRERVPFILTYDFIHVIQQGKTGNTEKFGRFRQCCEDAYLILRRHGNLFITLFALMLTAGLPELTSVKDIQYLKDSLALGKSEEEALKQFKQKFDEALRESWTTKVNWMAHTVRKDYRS
- method.description: Inhibition of PI3Kbeta (unknown origin) using PIP2 as substrate after 2 hrs by ADP-Glo assay
IC50 listing for selected compounds.
Unit µM implied. Number only.

N#Cc1c(N)ncnc1N1CCC[C@H]1c1nc2cccc(F)c2c(=O)n1Cc1ccccc1 ... 6.24

Now for a further compound.
Looking up N#Cc1c(N)ncnc1N1CCC[C@H]1c1nc2cccc(F)c2c(=O)n1C1CCCC1 , I found its IC50 recorded as 1.55

* * *

- target.system: Phosphatidylinositol 4,5-bisphosphate 3-kinase catalytic subunit alpha isoform (Homo sapiens)
- Sequence (P42336 whole entry, canonical isoform): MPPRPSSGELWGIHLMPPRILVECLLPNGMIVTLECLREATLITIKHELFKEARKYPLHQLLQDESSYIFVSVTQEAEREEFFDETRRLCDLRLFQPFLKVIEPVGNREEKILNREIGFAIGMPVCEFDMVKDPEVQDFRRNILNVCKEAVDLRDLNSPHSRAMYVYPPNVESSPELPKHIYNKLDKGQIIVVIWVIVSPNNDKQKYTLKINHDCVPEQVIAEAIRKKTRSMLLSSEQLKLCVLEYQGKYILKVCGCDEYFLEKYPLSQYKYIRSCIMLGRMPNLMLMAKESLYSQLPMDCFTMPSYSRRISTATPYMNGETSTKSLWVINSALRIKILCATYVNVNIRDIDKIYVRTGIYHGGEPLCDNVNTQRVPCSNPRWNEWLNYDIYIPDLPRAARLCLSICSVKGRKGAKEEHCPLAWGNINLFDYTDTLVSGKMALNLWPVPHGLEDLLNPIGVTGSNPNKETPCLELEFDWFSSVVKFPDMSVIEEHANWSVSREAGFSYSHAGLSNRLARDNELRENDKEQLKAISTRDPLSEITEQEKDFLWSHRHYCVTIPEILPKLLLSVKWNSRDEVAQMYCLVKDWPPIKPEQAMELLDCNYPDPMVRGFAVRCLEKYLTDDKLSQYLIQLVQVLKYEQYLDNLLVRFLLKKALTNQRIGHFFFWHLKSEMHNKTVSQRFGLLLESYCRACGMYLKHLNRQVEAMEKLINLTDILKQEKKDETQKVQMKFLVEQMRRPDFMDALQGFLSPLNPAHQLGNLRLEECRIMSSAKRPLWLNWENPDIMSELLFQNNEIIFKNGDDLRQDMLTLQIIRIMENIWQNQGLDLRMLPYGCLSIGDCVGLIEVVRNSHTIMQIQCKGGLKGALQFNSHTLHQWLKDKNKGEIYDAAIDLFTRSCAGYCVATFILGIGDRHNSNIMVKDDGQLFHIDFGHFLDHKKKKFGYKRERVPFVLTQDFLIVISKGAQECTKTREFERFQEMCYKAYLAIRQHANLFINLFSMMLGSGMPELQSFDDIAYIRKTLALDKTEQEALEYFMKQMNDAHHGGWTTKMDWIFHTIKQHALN
- method.description: Inhibition of PI3Kalpha (unknown origin) using PIP2 as substrate after 2 hrs by ADP-Glo assay
pIC50 listing for selected compounds.
Please report pIC50 as the negative decimal logarithm of the molar concentration, giving only the number.

N#Cc1c(N)ncnc1N1CCC[C@H]1c1nc2cccc(F)c2c(=O)n1C1CCCC1 ... 5.07

Now for a further compound.
Looking up N#Cc1c(N)ncnc1N1CCC[C@H]1c1nc2cccc(F)c2c(=O)n1Cc1ccccc1 , I found its pIC50 recorded as 5.31
